Format: in vivo, human
condition-notes: human, plasma, iv, 60 mg/m2, Tmax, 100 mg/day, Panel 2 (CT, docetaxel 60 mg/m^2 IV), Dose 1; median (range)
attribute-measured: Tmax (h)
Supply the numeric figure in h, leaving out any unit text.

Req: Find the measured Tmax of O=C(O)[C@]1(Cc2cccc(Nc3nccs3)n2)CC[C@@H](Oc2cccc(Cl)c2F)CC1 [MK-5108] and report it.
Resp: 2

----------
Type: in vivo, human
condition-notes: human, plasma, iv, C12h, 100 mg/day, Panel 2 (CT, docetaxel 60 mg/m^2 IV), Dose 1
attribute-measured: concentration at 12 h (nM)
Return type: number; implicit unit nM.

Req: State its concentration at 12 h for this compound: O=C(O)[C@]1(Cc2cccc(Nc3nccs3)n2)CC[C@@H](Oc2cccc(Cl)c2F)CC1
Resp: 150

----------
Type: in vivo, human
condition-notes: human, plasma, oral, 1200 mg/day, C12h, Panel 1 (MT), Dose 1
attribute-measured: concentration at 12 h
Please give the number followed by its unit.

Req: // fetch concentration at 12 h given entry O=C(O)[C@]1(Cc2cccc(Nc3nccs3)n2)CC[C@@H](Oc2cccc(Cl)c2F)CC1
Resp: 2120 nM

----------
Assay type: in vivo, human
condition-notes: human, plasma, oral, 400 mg/day, AUC0-12h, Panel 1 (MT), Dose 1
attribute-measured: AUC(0-t) (µM·h)
Express the result in µM·h but write the number alone.

Req: Read off the recorded AUC(0-t) for O=C(O)[C@]1(Cc2cccc(Nc3nccs3)n2)CC[C@@H](Oc2cccc(Cl)c2F)CC1
Resp: 27

----------
Assay type: in vivo, human
condition-notes: human, plasma, oral, 1200 mg/day, t1/2, 1200 mg/day, Panel 1 (MT), Dose 4
attribute-measured: half-life

Req: Indicate its recorded half-life; the compound in question is O=C(O)[C@]1(Cc2cccc(Nc3nccs3)n2)CC[C@@H](Oc2cccc(Cl)c2F)CC1
Resp: 498 min

----------
Assay type: in vivo, human
condition-notes: human, plasma, oral, 1500 mg/day, Tmax, Panel 1 (MT), Dose 4; median (range)
attribute-measured: Tmax (h)
The reply should contain only the number, in h.

Req: Tell us which Tmax value is on record for O=C(O)[C@]1(Cc2cccc(Nc3nccs3)n2)CC[C@@H](Oc2cccc(Cl)c2F)CC1 [MK-5108]
Resp: 2

----------
Type: in vivo, human
condition-notes: human, plasma, oral, 1500 mg/day, Cmax, Panel 1 (MT), Dose 1
attribute-measured: Cmax (µM)
Numbers only here, please. The scale is µM.

Req: // Input: O=C(O)[C@]1(Cc2cccc(Nc3nccs3)n2)CC[C@@H](Oc2cccc(Cl)c2F)CC1 [MK-5108] . Output its Cmax only.
Resp: 20.8

----------
Type: in vivo, human
condition-notes: human, plasma, oral, 200 mg/day, t1/2, 200 mg/day, Panel 1 (MT), Dose 4
attribute-measured: half-life (h)
Lab book: enter the figure in h, no units written.

Req: Given O=C(O)[C@]1(Cc2cccc(Nc3nccs3)n2)CC[C@@H](Oc2cccc(Cl)c2F)CC1 [MK-5108] , respond with its half-life.
Resp: 9.3

----------
Format: in vivo, human
condition-notes: human, plasma, iv, 60 mg/m2, Tmax, 225 mg/day, Panel 2 (CT, docetaxel 60 mg/m^2 IV), Dose 1; median (range)
attribute-measured: Tmax (h)
Write the number in h without appending the unit.

Req: Return Tmax (reported value) for this compound: O=C(O)[C@]1(Cc2cccc(Nc3nccs3)n2)CC[C@@H](Oc2cccc(Cl)c2F)CC1 [MK-5108]
Resp: 2
